- Tested on: A549/ATCC NSCLC
- METHOD: NCI-60 one-dose screen, 48 h (100 = growth as untreated, 0 = no growth, -100 = all killed)
- EXPERIMENTAL CONTEXT: 10 µM unless noted
About 83,000 compounds went through this panel and 20% of them were active in at least one assay; those are over-represented in the sample as a whole.
Values of growth greater than or equal to 40% map to criterion met; values below map to criterion not met.

Previously resolved entries follow.
>>> label_value("O=C1CCC/C=C\\C[C@H]2C=CC(=O)/C2=C/C[C@H](C/C=C\\CC(F)(F)F)O1")
"criterion not met"
>>> label_value("C=C1C(=O)O[C@H]2[C@H]1CC/C(COC(=O)NCc1ccc(OC)cc1)=C\\CC[C@@]1(C)O[C@@H]21")
"criterion met"
>>> label_value("CC(C)(C)c1cc(-c2nc3ccc(N4CCN(CCO)CC4)cc3[nH]2)cc(C(C)(C)C)c1O")
"criterion met"
>>> label_value("Cc1ccc2c(c1)ncn2-c1ncnc2c1CC(C)c1ccccc1N2C (centres undefined)")
"criterion not met"
>>> label_value("CC(=O)Nc1ccc(S(=O)(=O)NC(CCC(=O)Nc2ccc(Cl)cc2)C(=O)O)cc1 (centres undefined)")
"criterion met"
>>> label_value("CCCCCCCC/C=C\\CCCCCCCCOc1ccccc1CCOP(=O)(O)OCC[N+](C)(C)C")
"criterion met"

Ask | Quick check: does Cc1ccc(S(=O)(=O)OCC(=O)Nc2ccc(C(=O)O)c(O)c2)cc1 have growth greater than or equal to 40%?
Reply | criterion met

Ask | Quick check: does COc1ccc(-c2nc3sccn3c2-c2ccnc(NCCCNS(=O)(=O)c3ccc(C)cc3)n2)cc1 have growth greater than or equal to 40%?
Reply | criterion not met

Ask | Quick check: does CC[C@H](C)[C@@H]1NC(=O)[C@H]([C@@H](C)O)NC(=O)C(Cc2ccccc2)NC(=O)[C@@H]2CCCN2C(=O)C(C(C)C)NC(=O)C(Cc2ccccc2)NC(=O)CNC(=O)[C@@H]2CCCN2C1=O (some centres undefined) have growth greater than or equal to 40%?
Reply | criterion met

Ask | Quick check: does c1cncc(CNc2ccccc2-c2nnc(Nc3ccc4c(c3)OCCO4)o2)c1 have growth greater than or equal to 40%?
Reply | criterion not met

Ask | Quick check: does Clc1ccc([I+]c2ccc(Cl)cc2Cl)c(Cl)c1 have growth greater than or equal to 40%?
Reply | criterion met

All values here come from PubChem BioAssay (NCI).
